- Assayed Target: GLP-1R (Homo sapiens)
- Sequence (P43220 24-463): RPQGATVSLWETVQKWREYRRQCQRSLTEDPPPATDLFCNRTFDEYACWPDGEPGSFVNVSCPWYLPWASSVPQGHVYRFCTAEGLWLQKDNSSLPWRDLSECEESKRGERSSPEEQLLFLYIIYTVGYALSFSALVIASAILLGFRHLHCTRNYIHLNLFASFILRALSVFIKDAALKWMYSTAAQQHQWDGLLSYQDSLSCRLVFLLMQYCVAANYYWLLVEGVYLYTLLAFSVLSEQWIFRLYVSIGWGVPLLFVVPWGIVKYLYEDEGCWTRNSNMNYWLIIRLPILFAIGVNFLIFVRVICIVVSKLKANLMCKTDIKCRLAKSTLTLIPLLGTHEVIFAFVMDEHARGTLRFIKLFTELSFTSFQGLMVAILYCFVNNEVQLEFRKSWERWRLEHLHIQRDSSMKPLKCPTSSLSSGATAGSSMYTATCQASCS
- Experimental Details: EndoC cAMP Accumulation Assay
- Details: EndoC-βH1 human pancreatic β cell line; HTRF cAMP accumulation
Threshold 60 nM: EC50 strictly smaller gives Fulfilled, otherwise Not fulfilled.

Examples with answers:
C[C@@]1(c2ccc(C#N)cc2F)Oc2cccc([C@H]3[C@@H]4CN(Cc5nc6c(F)cc(C(=O)O)cc6n5C[C@@H]5CCO5)C[C@@H]43)c2O1 (relative stereo) = Fulfilled
CC1(c2ccc(Cl)cn2)Oc2cccc([C@H]3[C@@H]4CN(Cc5nc6ccc(C(=O)O)cc6n5CC5CCO5)C[C@@H]43)c2O1 (some centres unmarked) = Not fulfilled
CCn1cncc1Cn1c(CN2C[C@@H]3[C@H](C2)[C@H]3c2cccc3c2O[C@](C)(c2ccc(Cl)cn2)O3)nc2c(OC)cc(C(=O)O)cc21 (relative stereo) = Fulfilled

Q: Dear reviewer, please state whether CCn1cncc1Cn1c(CN2C[C@@H]3[C@H](C2)[C@H]3c2cccc3c2O[C@](C)(c2ccc(Cl)cn2)O3)nc2c(F)cc(C(=O)O)cc21 (relative stereo) has EC50 strictly beneath 60 nM.
Result: Fulfilled

Q: Does CCn1cncc1Cn1c(CN2C[C@@H]3[C@H](C2)[C@H]3c2cccc3c2O[C@](C)(c2ccc(Cl)cc2F)O3)nc2c(F)cc(C(=O)O)cc21 (relative stereo) have EC50 strictly under 60 nM?
Result: Fulfilled
